self-cleavage kobs at 640 uM GlcN6P overview
B1: glmS ribozyme (parent)
chain: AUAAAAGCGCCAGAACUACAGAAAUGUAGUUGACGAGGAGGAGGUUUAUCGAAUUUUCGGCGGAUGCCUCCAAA

# Variants of: B1
# test.summary: self-cleavage kobs at 640 uM GlcN6P; higher = faster cleavage; RNA array
# experimental.conditions: with glucosamine-6-phosphate
Fewer inactive variants are shown than the library holds.
observable: self-cleavage kobs at 640 uM GlcN6P

              mutant_designation        result
 0                 G9A U30G G59C   < 1e-05 s⁻¹
 1                 G7A G38C G59C   < 1e-05 s⁻¹
 2                      A6G C61U   < 1e-05 s⁻¹
 3                     U57A C68G  6.21e-05 s⁻¹
 4                G40C C70U C71G  0.000624 s⁻¹
 5                     A14U U69A  5.17e-05 s⁻¹
 6           A36C G40U U54A G63U   < 1e-05 s⁻¹
 7                     G41U G60C   < 1e-05 s⁻¹
 8                G40A G51A G59A   < 1e-05 s⁻¹
 9                     A36G G59U   < 1e-05 s⁻¹
10           A12U U46C A52G A53G  0.000183 s⁻¹
11                      G9U G13C   < 1e-05 s⁻¹
12           A14G U54A C58A C68U  9.22e-05 s⁻¹
13                     G29U U54A   0.00184 s⁻¹
14           A15U U45C C50G U69G   < 1e-05 s⁻¹
15                C10G G40C C70G   < 1e-05 s⁻¹
16                     G35A A48C   < 1e-05 s⁻¹
17                     U56C C61A   < 1e-05 s⁻¹
18                 A6C U31C G62A   < 1e-05 s⁻¹
19                     U31A G40C   0.00048 s⁻¹
20                     G40U G63C   < 1e-05 s⁻¹
21            C8A C11U G38C C50U   < 1e-05 s⁻¹
22                 G9A U47G U49G   < 1e-05 s⁻¹
23                G29U A36C G44U   < 1e-05 s⁻¹
24                G35A U46C U65A   < 1e-05 s⁻¹
25                A14U U31C A39C  7.42e-05 s⁻¹
26                C10U G35U G51A   < 1e-05 s⁻¹
27           C34G G37A U45A C58A   < 1e-05 s⁻¹
28                A33G A36C U54C   < 1e-05 s⁻¹
29                U47A C58U U65C   < 1e-05 s⁻¹
30                     A12G A14G  0.000405 s⁻¹
31                     G35U U49G   < 1e-05 s⁻¹
32                          U55C    0.0091 s⁻¹
33                     U55C C70U  0.000172 s⁻¹
34                C34A G51U C67U   4.9e-05 s⁻¹
35                A33U G35C G63U   < 1e-05 s⁻¹
36           C10U A39U A64U C70G   < 1e-05 s⁻¹
37                     C16G A39G   0.00194 s⁻¹
38                A15C C34U G66C   < 1e-05 s⁻¹
39                     A36U U45A   < 1e-05 s⁻¹
40                     A14G G59A  6.96e-05 s⁻¹
41                C10U G43U U45G   < 1e-05 s⁻¹
42                     C11A U55C  3.19e-05 s⁻¹
43       G9U G29A U46A G51U C67U   < 1e-05 s⁻¹
44                     G32U A53G  0.000174 s⁻¹
45                     U31A U65G  0.000521 s⁻¹
46                G13A G41C C67U   < 1e-05 s⁻¹
47                      G7C G43U   < 1e-05 s⁻¹
48                C10G C58G G62C   < 1e-05 s⁻¹
49                      C8U C10A   < 1e-05 s⁻¹
50                 C8G C11G G43A   < 1e-05 s⁻¹
51                G13U A64G U65G  8.37e-05 s⁻¹
52                      C8U A53U   < 1e-05 s⁻¹
53                     A14C G32U  0.000206 s⁻¹
54            A6G U47G C61A A64U   < 1e-05 s⁻¹
55                     U45A U65C  0.000994 s⁻¹
56                     A36G U65G   < 1e-05 s⁻¹
57                C11U G38A C67G   7.1e-05 s⁻¹
58  G9U C16G G29U G40U G41A G66U   < 1e-05 s⁻¹
59                     G35A A42G   < 1e-05 s⁻¹
60       A6U C34G U47G C67U C68A  0.000407 s⁻¹
61                G37C A53C G60A   < 1e-05 s⁻¹
62                     A15C U54G  0.000903 s⁻¹
63                 A6G G44A C71A   < 1e-05 s⁻¹

Values were extracted from the supplement of paper PMC7125110.
